System: E. coli K-12 LA 290 R 55
Please provide measured MIC for the entries that follow.
Show the value, then the unit it is measured in.

compound	assayResult
CCCN(CCC)CC1C=C(C)C=CC(=O)C(C)CC(CC=O)C(OC2OC(C)C(O)C(N(C)C)C2O)C(C)C(O)CC(=O)OC1CC (stereo not drawn)	1.56 µg/mL
CCC1OC(=O)CC(O)C(C)C(OC2OC(C)C(O)C(N(C)C)C2O)C(CC=O)CC(C)C(=O)C=CC(C)=CC1CN1CCCCC1 (stereo not drawn)	1.56 µg/mL

[in] Reported MIC for CCC1OC(=O)CC(O)C(C)C(OC2OC(C)CC(N(C)C)C2O)C(CC=O)CC(C)C(=O)C=CC(C)=CC1CN(C)C (stereo not drawn) : what is it?
[out] 0.39 µg/mL

====

Test system: Staph. aureus MS 9861
Assay: antimicrobial activity (MIC), Table I
Format: cell-based
Conditions: Staphylococcus aureus, MS9861; Staph. aureus MS 9861; read-out: MIC
Please provide measured MIC for the entries that follow.
Numbers only, in µg/mL.

Illustrative cases are given below, each with its answer.
molecule	systemUnderTest	MIC, µg/mL
CCC1OC(=O)CC(O)C(C)C(OC2OC(C)C(O)C(N(C)C)C2O)C(CC=O)CC(C)C(=O)C=CC(C)=CC1CN(C)C (stereo not drawn)	Staph. aureus MS 9861	1.56
CCOC(=O)NCC1C=C(C)C=CC(=O)C(C)CC(CC=O)C(OC2OC(C)CC(N(C)C)C2O)C(C)C(O)CC(=O)OC1CC (stereo not drawn)	Staph. aureus MS 9861	0.39
CCC1OC(=O)CC(O)C(C)C(OC2OC(C)CC(N(C)C)C2O)C(CC=O)CC(C)C(=O)C=CC(C)=CC1CN(C)C (stereo not drawn)	Staph. aureus MS 9861	0.39
CCCN(CCC)CC1C=C(C)C=CC(=O)C(C)CC(CC=O)C(OC2OC(C)C(O)C(N(C)C)C2O)C(C)C(O)CC(=O)OC1CC (stereo not drawn)	Staph. aureus MS 9861	1.56
CCC1OC(=O)CC(O)C(C)C(OC2OC(C)CC(N(C)C)C2O)C(CC=O)CC(C)C(=O)C=CC(C)=CC1CN1CCN(C)CC1 (stereo not drawn)	Staph. aureus MS 9861	6.25

Moving on to another molecule below.
[in] Reported MIC for CCC1OC(=O)CC(O)C(C)C(OC2OC(C)CC(N(C)C)C2O)C(CC=O)CC(C)C(=O)C=CC(C)=CC1CN1CCCCCC1 (stereo not drawn) : what is it?
[out] 0.78

====

System: B. subtilis NRRL B-558
Assay: antimicrobial activity (MIC), Table I
Type: cell-based
Details: Bacillus subtilis, NRRLB558; B. subtilis NRRL B-558; read-out: MIC
Please provide measured MIC for the entries that follow.
Answers are plain numbers, in µg/mL.

Hi team, please reply with MIC for each item in this list.
1. CCC1OC(=O)CC(O)C(C)C(OC2OC(C)CC(N(C)C)C2O)C(CC=O)CC(C)C(=O)C=CC(C)=CC1CN1CCOCC1 (stereo not shown) [Example 29]
2. CCC1OC(=O)CC(O)C(C)C(OC2OC(C)C(O)C(N(C)C)C2O)C(CC=O)CC(C)C(=O)C=CC(C)=CC1CN1CCCCC1 (stereo not shown) [Example 13]

[out]
0.39
0.39

Hi team, please reply with MIC for each item in this list.
1. CCC1OC(=O)CC(O)C(C)C(OC2OC(C)CC(N(C)C)C2O)C(CC=O)CC(C)C(=O)C=CC(C)=CC1CNC(=O)c1ccccc1 (stereo not shown) [Example 76]
2. CCCN(CCC)CC1C=C(C)C=CC(=O)C(C)CC(CC=O)C(OC2OC(C)C(O)C(N(C)C)C2O)C(C)C(O)CC(=O)OC1CC (stereo not shown) [Example 6]
3. CCC1OC(=O)CC(O)C(C)C(OC2OC(C)CC(N(C)C)C2O)C(CC=O)CC(C)C(=O)C=CC(C)=CC1CN1CCN(C)CC1 (stereo not shown) [Example 32]
4. CCOC(=O)NCC1C=C(C)C=CC(=O)C(C)CC(CC=O)C(OC2OC(C)CC(N(C)C)C2O)C(C)C(O)CC(=O)OC1CC (stereo not shown) [Example 78]
5. CCC1OC(=O)CC(O)C(C)C(OC2OC(C)C(O)C(N(C)C)C2O)C(CC=O)CC(C)C(=O)C=CC(C)=CC1CN(C)C (stereo not shown) [Example 4]
6. CCC1OC(=O)CC(O)C(C)C(OC2OC(C)C(O)C(N(C)C)C2O)C(CC=O)CC(C)C(=O)C=CC(C)=CC1CN(CC)CC (stereo not shown) [Example 5]

[out]
0.78
0.39
1.56
0.39
0.78
0.78

====

Target or system E. coli K-12 LA 290 R 55: recorded MIC listed per item.
Give bare numbers, in µg/mL.

Hi team, please reply with MIC for each item in this list.
1. CCC1OC(=O)CC(O)C(C)C(OC2OC(C)C(O)C(N(C)C)C2O)C(CC=O)CC(C)C(=O)C=CC(C)=CC1CN(CC)CC (centres unmarked)
2. CCC1OC(=O)CC(O)C(C)C(OC2OC(C)CC(N(C)C)C2O)C(CC=O)CC(C)C(=O)C=CC(C)=CC1CN(CC)CC (centres unmarked)
3. CCC1OC(=O)CC(O)C(C)C(OC2OC(C)CC(N(C)C)C2O)C(CC=O)CC(C)C(=O)C=CC(C)=CC1CN1CCCCCCC1 (centres unmarked)
4. CCC1OC(=O)CC(O)C(C)C(OC2OC(C)CC(N(C)C)C2O)C(CC=O)CC(C)C(=O)C=CC(C)=CC1CN1CCCCCC1 (centres unmarked)

[out]
3.12
0.39
0.39
0.78

====

Test system: B. subtilis NRRL B-558
Experiment: antimicrobial activity (MIC), Table I
Format: cell-based
Conditions: Bacillus subtilis, NRRLB558; B. subtilis NRRL B-558; read-out: MIC
Please provide measured MIC for the entries that follow.
Numbers only, in µg/mL.

molecule	MIC (µg/mL)
CCC1OC(=O)CC(O)C(C)C(OC2OC(C)CC(N(C)C)C2O)C(CC=O)CC(C)C(=O)C=CC(C)=CC1CN1CCCCC1 (stereo not shown)	0.39

Hi team, please reply with MIC for each item in this list.
1. CCC1OC(=O)CC(O)C(C)C(OC2OC(C)CC(N(C)C)C2O)C(CC=O)CC(C)C(=O)C=CC(C)=CC1CN1CCCCCCC1 (stereo not shown)
2. CCC1OC(=O)CC(O)C(C)C(OC2OC(C)CC(N(C)C)C2O)C(CC=O)CC(C)C(=O)C=CC(C)=CC1CN1CCCC1 (stereo not shown)
3. CCC1OC(=O)CC(O)C(C)C(OC2OC(C)C(O)C(N(C)C)C2O)C(CC=O)CC(C)C(=O)C=CC(C)=CC1CN(C)CCc1ccccc1 (stereo not shown)
4. CCC1OC(=O)CC(O)C(C)C(OC2OC(C)CC(N(C)C)C2O)C(CC=O)CC(C)C(=O)C=CC(C)=CC1CN1CCCCC1CO (stereo not shown)

[out]
[0.39, 0.78, 50, 0.39]

[in] Reported MIC for CCC1OC(=O)CC(O)C(C)C(OC2OC(C)C(O)C(N(C)C)C2O)C(CC=O)CC(C)C(=O)C=CC(C)=CC1CN(C)Cc1ccccc1 (stereo not shown) : what is it?
[out] 3.12

====

Please provide measured MIC for the entries that follow.
System: E. coli K-12
Assay: antimicrobial activity (MIC), Table I
Assay type: cell-based
Settings: Escherichia coli, K12; E. coli K-12; read-out: MIC
Numbers only, in µg/mL.

compound	MIC [µg/mL]
CCC1OC(=O)CC(O)C(C)C(OC2OC(C)C(O)C(N(C)C)C2O)C(CC=O)CC(C)C(=O)C=CC(C)=CC1CN(C)CCc1ccccc1 (stereo not drawn)	12.5
CCC1OC(=O)CC(O)C(C)C(OC2OC(C)CC(N(C)C)C2O)C(CC=O)CC(C)C(=O)C=CC(C)=CC1CNC(=O)c1ccccc1 (stereo not drawn)	6.25
CCC1OC(=O)CC(O)C(C)C(OC2OC(C)CC(N(C)C)C2O)C(CC=O)CC(C)C(=O)C=CC(C)=CC1CN1CCCCCC1 (stereo not drawn)	0.78
CCC1OC(=O)CC(O)C(C)C(OC2OC(C)CC(N(C)C)C2O)C(CC=O)CC(C)C(=O)C=CC(C)=CC1CN1CCCCCCC1 (stereo not drawn)	0.78
CCC1OC(=O)CC(O)C(C)C(OC2OC(C)CC(N(C)C)C2O)C(CC=O)CC(C)C(=O)C=CC(C)=CC1CN1CCCCC1 (stereo not drawn)	3.12

[in] Look up MIC with E. coli K-12 for this compound: CCCN(CCC)CC1C=C(C)C=CC(=O)C(C)CC(CC=O)C(OC2OC(C)C(O)C(N(C)C)C2O)C(C)C(O)CC(=O)OC1CC (stereo not drawn)
[out] 1.56

====

Tested on: E. coli K-12 ML 1410
Experiment: antimicrobial activity (MIC), Table I
Assay type: cell-based
Conditions: Escherichia coli, K12ML1410
observable: MIC (µg/mL)
Give bare numbers, in µg/mL.

Illustrative cases are given below, each with its answer.
molecule	systemUnderTest	assayResult
CCC1OC(=O)CC(O)C(C)C(OC2OC(C)C(O)C(N(C)C)C2O)C(CC=O)CC(C)C(=O)C=CC(C)=CC1CN(CC)CC (stereo not drawn) [Example 5]	E. coli K-12 ML 1410	3.12
CCC1OC(=O)CC(O)C(C)C(OC2OC(C)C(O)C(N(C)C)C2O)C(CC=O)CC(C)C(=O)C=CC(C)=CC1CN1CCCCC1 (stereo not drawn) [Example 13]	E. coli K-12 ML 1410	3.12
CCC1OC(=O)CC(O)C(C)C(OC2OC(C)CC(N(C)C)C2O)C(CC=O)CC(C)C(=O)C=CC(C)=CC1CN1CCCC1 (stereo not drawn) [Example 16]	E. coli K-12 ML 1410	3.12
CCCN(CCC)CC1C=C(C)C=CC(=O)C(C)CC(CC=O)C(OC2OC(C)C(O)C(N(C)C)C2O)C(C)C(O)CC(=O)OC1CC (stereo not drawn) [Example 6]	E. coli K-12 ML 1410	3.12

Moving on to another molecule below.
[in] Reported MIC for CCC1OC(=O)CC(O)C(C)C(OC2OC(C)CC(N(C)C)C2O)C(CC=O)CC(C)C(=O)C=CC(C)=CC1CN(C)C (stereo not drawn) [Example 9] : what is it?
[out] 0.39
